Data provenance is patent US20060281789A1.

- Test system: MV-4-11
- assay-name: Cytostatic activity on human acute myeloid leukemia cell line MV-4-11 (WST-1)
- Assay type: cell-based
- stated-conditions: MV4-11, 3.16 μmol/L, 72 hours, read-out: MV-4-11 (%) cytostatic rate
Structures can show the parent of a compound that is named as a salt.
Below, each entry is listed alongside its reported inhibition at 3.16 µM.
// units = %; emit number, no label

Before answering, review these 5 worked examples.
{"columns": ["compound", "measurement-label", "display-unit", "measurement"],
 "data": [
  ["CN(C)CCCOc1ccc(/C=C/c2n[nH]c3ccccc23)cc1 [Compound 10, hydrochloride]", "inhibition at 3.16 µM", "%", 97],
  ["C(=C\\c1n[nH]c2ccccc12)/c1ccc(OCCN2CCCCC2)cc1 [Compound 8, hydrochloride]", "inhibition at 3.16 µM", "%", 97],
  ["C(=C\\c1n[nH]c2ccccc12)/c1cccnc1 [Compound 21, (E)-3-[2-(3-pyridyl)vinyl]-1H-indazole]", "inhibition at 3.16 µM", "%", 79],
  ["CN(C)CCOc1cccc(/C=C/c2n[nH]c3ccccc23)c1 [Compound 18, hydrochloride]", "inhibition at 3.16 µM", "%", 95],
  ["COc1ccc(/C=C/c2n[nH]c3ccccc23)cn1", "inhibition at 3.16 µM", "%", 82]
]}

Exercise: Which inhibition at 3.16 µM value is on record for COc1cc(/C=C/c2n[nH]c3ccccc23)ccc1OCC(=O)N1CCOCC1 ?
Solution: 95
